B1: ETS2 (parent)
chain: TSGKRYVYRFVCDLQNLLGFTPEE

variants of: B1; assay: protein stability index of a GFP-peptide fusion (GPS, HEK-293T) (PSI 1-6); higher = more stable; conditions: c terminus: a fixed tail appended;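 note: lentivirally expressed fusions sorted by FACS into six bins by GFP to DsRed ratio, PSI derived from sequencing read proportions per bin multiplied by bin number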
valueKind: protein stability index
Please reply with the number alone, leaving off any unit.

Examples with answers:
# mut, protein stability index
rows = [
    ("E23A", 2.68),
    ("L17Q", 1.71),
    ("F20C", 1.93),
    ("N16L", 1.52),
    ("F20D", 1.48),
    ("L17W", 2.21),
    ("G19I", 2.39),
    ("L14G", 2.34),
    ("N16A", 2.13),
    ("F20W", 3.05),
]

Looking up E23M , I see its protein stability index listed as 2.35

Looking up N16C , I see its protein stability index listed as 1.7

Just for reference, the supplement of paper PMC10567573 is where these values come from.
